System: HEK293FT dCK*-only
protocol-notes: relative growth in counter assay (no AraC = 100%, AraC + DMSO = 0%); higher = more growth rescue independent of IKZF1
test-context: compound concentration: 5 uM; AraC concentration: 0.3 uM; overnight pretreatment + 4 days AraC
Whole data set: some 1,000 compounds, median “relative growth in counter assay (no AraC = 100%, AraC + DMSO = 0%)” near -1.1, cut for the highest 2% near 20. Only a selection was taken, and the highest values are over-represented in it overall.
List of relative growth in counter assay values.
// units = %; emit number, no label

Consider the following illustrative entries.
# molecule, measured-number
records = [
    ("Cc1cnc(Nc2cccc(C3CCN(CC(=O)N4CCC(C)CC4)CC3)n2)s1", -9.8),
    ("Cc1cnc(NC(=O)CN2CCC(c3cccc(Nc4nc(C)c(C)s4)n3)CC2)s1", 24.2),
    ("Cn1c(SCC(=O)Nc2ccccn2)nc2ccccc21", 0.85),
    ("O=C1CCC(N2C(=O)c3cc(F)c(N4CCN(CCC5CCNCC5)CC4)cc3C2=O)C(=O)N1 (stereo unspecified)", 1.21),
    ("CCCc1cnc(Nc2cccc(C3CCN(C(=O)C4CCCCC4)CC3)n2)s1", -19.4),
]

Next item in the queue.
The value of relative growth in counter assay measured for the molecule `O=C(CC(c1ccccc1)c1ccccc1)Nc1ccc(S(=O)(=O)Nc2ncccn2)cc1` turned out to be -1.59
